Hello, the source for this data is patent US20050186649, in case you need it.

Entries annotated with measured pKd
system: T1, human plasmin (Homo sapiens, UniProt P00747)
T1 chain: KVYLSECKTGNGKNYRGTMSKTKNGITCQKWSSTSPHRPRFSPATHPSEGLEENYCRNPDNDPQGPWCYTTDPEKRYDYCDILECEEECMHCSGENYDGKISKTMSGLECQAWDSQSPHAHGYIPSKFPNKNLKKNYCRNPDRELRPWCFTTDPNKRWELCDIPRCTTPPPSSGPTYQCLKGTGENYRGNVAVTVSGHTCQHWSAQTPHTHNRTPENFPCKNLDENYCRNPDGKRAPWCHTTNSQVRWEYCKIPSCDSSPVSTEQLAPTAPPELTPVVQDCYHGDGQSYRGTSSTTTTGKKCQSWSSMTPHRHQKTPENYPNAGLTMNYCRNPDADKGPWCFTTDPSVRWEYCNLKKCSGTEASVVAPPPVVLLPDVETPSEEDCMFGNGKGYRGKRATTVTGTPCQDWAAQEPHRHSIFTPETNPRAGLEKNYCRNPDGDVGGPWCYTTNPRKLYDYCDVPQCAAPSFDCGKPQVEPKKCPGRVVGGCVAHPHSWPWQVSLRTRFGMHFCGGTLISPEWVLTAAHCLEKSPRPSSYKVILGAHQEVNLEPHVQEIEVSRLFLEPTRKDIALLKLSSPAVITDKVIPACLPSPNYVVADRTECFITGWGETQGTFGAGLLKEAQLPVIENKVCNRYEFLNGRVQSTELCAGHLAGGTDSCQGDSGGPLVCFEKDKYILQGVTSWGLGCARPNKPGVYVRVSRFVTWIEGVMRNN
pKd: −log10 of the molar value.

Recorded results for 2 binders are shown here.
SPI43 (protein) MHSFCAFKAETGPCRGKFDRWFFNIFTRQCESFHYGGCKGNQNRFESLEECKKMCTRD :: < 8.40
SPI51 (protein) MHSFCAFKADAGPCRAKFERFFFNIFTRQCTAFFYGGCGGNQNRFESLEECKKMCTRD :: ~9.30

Attention now turns to another entry.
pKd for SPI54 (protein) MHSFCAFKADSGPCRARFDRWFFNIFTRQCTRFPYGGCGGNQNRFESLEECKKMCTRD is < 8.40
